- ASSAY TEXT: yeast display, Sf9 membrane polyspecificity reagent, FACS + sequencing; frameworks hold sequencing errors
READOUT: polyreactivity (PSR sort gate)

These solved cases illustrate the format of a correct answer.
QVQLVESGGGLVQAGGSLRLSCAASGRTFRGYAMGWYRQAPGKERELVAAITRSGGSTYADSVKGRFTISRDNAKNTFYLQMNSLKPEDTAVYYCAADRGYKYYYWGQGTQVTVSS : high polyreactivity
QVQLVESGGGLVQAGGSLRLSCAASGSIFRFYVMGWYRQAPGKERELVAAISIGGSTNYADSVKGRFTISRDNAKNTVFLQMNSLKPEDTAVYYCAADYWYGAGMPHGTEFDYWGQGTQVTVSS : low polyreactivity
QVQLVESGGGLVQAGGSLRLSCAASGRIFRGNTMGWYRQAPGKERELVATINGRGGSTYYADSVKGRFTISRDNAKNTVYLQMNSLKPVDTAVYYCAARRGYPRFEYWGQGTQVTVSS : high polyreactivity
QVQLVESGGGLVQAGGSLRLSCAASGFIFYAYDMGWYRQAPGKERELVAAISRVGSTYYADSVKGRFTISRDNAKNTVYLQMNSLKPEDTAVYYCATKFGTTRGFGYWGQGTQVTVSS : high polyreactivity

# get_value(readout='polyreactivity (PSR sort gate)', item= QVQLVESGGGLVQAGGSLRLSCAASGFTFYQYAMGWYRQAPGKEREFVAAISSSGSSTYYADSVKGRFTISRDNAKNTVYLQMNSLKPEDTAVYYCNAYFRNWRYSPGGYWGQGTQVTVSS ) high polyreactivity

###

- ASSAY TEXT: yeast display, Sf9 membrane polyspecificity reagent, FACS + sequencing; frameworks hold sequencing errors
READOUT: polyreactivity (PSR sort gate)

Completed entries (count: 4):
QVQLVESGGGLVQAGGSLRLSCAASGFIFYTYAMGWYRQAPGKERELVAAISWNGGSTNYADSVKGRFTISRDNAKNTDYLQMNSLKPEDTAVYYCAARSVSTLRYTSRKLRYDYWGQGTQVTVSS : high polyreactivity
QDQHVESGGGLVQAGGSLRLSCAASGSIFGYYARGWYRQAPGTETELVAAISKSGTRTYYADSVKGRFTISRDNAKNTVYVQMNSLKPEETAVYYCAARYYSRTTAMDYWGQGTQVTVSS : high polyreactivity
QFQLVESWGGLVPPGGILRLSCAASRSTFRYYPIGRYRQAPGHERELVAVISSSGSRTNYADSVKGRFTISRDTAKNTVYLQLNSLKPEDSAVYYCGAVSSYRYYADYYWGQGTQVTVSS : high polyreactivity
QEQLVDSGGGLVQAGGSLRLSCAASVRIFGRYVMGWYRQAPGKERELVAAITSRDDSTYYADSVKGRFTISRDNAKNTVYLQMNSLKPEDTAVYYCAATWGRGYDYCGQGTQVTVSS : high polyreactivity

I would be grateful if you could share the reported polyreactivity (PSR sort gate) for QVQLVESGGGLVQAGGSLRLSCAASGRTFFRYAMGWYRQAPGKERELVAAISSSGGSSYYADSVKGRFTISRDNAKNTVYLQMNSLKPEDTAVYYCNRVYALTYYAKYGYDFWGQGTQVTVSS . high polyreactivity

Which polyreactivity (PSR sort gate) value belongs to QVQIVESGGGLVQAGGSLPLSCADYGLIFPDYAMGCYRQAPGKEREFVASIWRGGTTYYADSVKGRFTISRDNAKNTFYFKINSLKPEDTAVYYCASRYFHRGLVFPFTKYDYWGLGTQVTVSS ? high polyreactivity

Can you share its polyreactivity (PSR sort gate)? I mean this sequence: QVQLVESGGGLVQAGGSLRLSCAASGYIFTVYAMGWYRQAPGKERELVAAINWSDGSTYYADSVKGRFTISRDNAKNTVYLQMNSLKPEDTAVYYCATEYWYGIYGYDYWGQGTQVSVSS high polyreactivity

// lookup polyreactivity (PSR sort gate) for QVQLVESGGGLVQAGASLRLSCAPSGRIFGPNTMGWSRQAPGKEREVVAAITRRGGSTYYADSVKGRFTISRDNAKNTVYLQMNSLKPEDTAVYYCAAVGQKRSLGFSWGQGTQVTVSS low polyreactivity

Find the recorded polyreactivity (PSR sort gate) belonging to QVQLVESGGGLVQAGGSLRLSCAASGSTFFDYAMGWYRQAPGKERELVAVISDGGTTTYADSVKGRFTISRDNAKNTVYLQMNSLKPEDTAVYYCAAENQDGLLVILGGYGYWGQGTQVTVSS and report it. low polyreactivity

Entry under review: HVQLVESGGGLVQAGGSLRLSCAASGSIFIKYAMGWYRQAPGKERELVAAISRRGGSTYYADSVKGRFTISRDNAKNTVYLQMNSLKPEDTAVYYCAAVNIRFGYWGQGTQVTVSS . Reported polyreactivity (PSR sort gate)? high polyreactivity

Can you share its polyreactivity (PSR sort gate)? I mean this sequence: QVQLVESGGGLVQAGGSLRLSCAASGFILQYNAMGWYRQAPGKEREFVATITGSGGSTYYADSVKGRFTISRDNAKNTVYIQMYSLKPEDTAFYYCNAETYIDLSGKFPVDYDYWGQGTQVTVSS low polyreactivity

###

- ASSAY TEXT: yeast display, Sf9 membrane polyspecificity reagent, FACS + sequencing; frameworks hold sequencing errors
READOUT: polyreactivity (PSR sort gate)

// solved cases for polyreactivity (PSR sort gate) follow
QVQLVESGGGLVQAGGSLRLSCAPSGSTSYLYAMGWYRQAPGKERELVATITTRSGSTYYADSVKGRFTISRDNAKNTVYIQMNSLKPEDTAVYYCAARWISVWSEGAEHDYWGQGTQVTVSS : low polyreactivity
QVQLVESCGGLVQAGGSLRLSCAASGSIFRYNAMGWYRQAPWKEWELVAAIRSGSGTNYADSVKGRFTISRDNAKNTVFLQMNSLKPEDTAVYYCNAQPWYRTKYDYWGQGNQVTVSS : low polyreactivity
QVQLVESGGGLVQAGGSLRLSCAASGSIFWYYAMGWYRQAPGKERELVAGITRGGSTSYADSVKGRFTISRDNAKKTVYLQMNSLKPEDTAVYYCAKRNPYSRYGYWGQGTQVTVSS : high polyreactivity
QFQLVESGGGLVQAGGSLRLSCAASGRTFYYYVMGWYRQAPGKERELVAAITIRGGSTYYADSVKGRFTISRDNAKNTVYLQMNSLKPEDTAVYYCNARGGSSTYGNYYWGQGTQVTVSS : low polyreactivity
QVQLVESGGGLVQAGGSIRLSCAASGSTFLIKAMGWYRQAPGKERELDASINRRGTSTFYADSVKARFTISRDNAKNTVYLQMNSLKPDDTAVYYCNAYPGAAIRSTGRYDYWGQGTQVTVSS : low polyreactivity

Report polyreactivity (PSR sort gate) for QVQLVESGGGLVLAGGSLRLSCAASGRTFKENAKGWYRQAPGKARELVAVINSGGRTYYAVSVKGSFTISRDNAKNTVYLQMNSLKPEDSAVYYCAAYSRSKESGYWGQGTQVTVSS please. high polyreactivity

Which value of polyreactivity (PSR sort gate) has been reported for QVQLVESGGGLVQAGGSLRLSCAASGSTFTVNTMGWYRQAPGKERELVDAISFGGGPTYYADSVKGRFTISRDNAKNTVYLQMNSLKPDDTAVYYCAARGYLWHARKYYYWGQGTQVTVSS in the records? high polyreactivity

Which polyreactivity (PSR sort gate) value is on record for QVQLVESGGGLVQAGGSLRLSCAASGFTFSYYAMGWYRQAPGKERELVARISFSGTRTYYADSVKGRFTISRDNAKNTVYLQMNSLKPEDTAVYYCAARFGYVGITARYDYWGQGTQVTVSS ? high polyreactivity

###

- ASSAY TEXT: yeast display, Sf9 membrane polyspecificity reagent, FACS + sequencing; frameworks hold sequencing errors
READOUT: polyreactivity (PSR sort gate)

Field: example entries. Status: answers known.
QVQLVESGGGLVQAGGSLRLSIDASGRIFYPYVMGWYRQAPGQERELVAAISDSTGSTYYADSVKGRFTISRDNAKITVYLEMNSQKPEDTAVFYCAAGWFYATYWRFYYCGQGTQVTVSS : low polyreactivity
QVQLVESGGGLVQAGGSLRLSCAASGSIFLTYAMGWYRQAPGKERELVAAISSSVGSTNYADSVKGRFTISRDNAKNTVYLQMNSLKPEDTAVYYCNATGVQYFLYGYWGQGTQVTVSS : low polyreactivity
QVQLVESGGGLVQEGGSLRLICAASGRTVNTNALGLYRQAPGKEREFVAAISRSGGSTRYADSVKGRFTISRDNAKNTVYLQLNSLKPEDTAVYYCAAVRFRPRGNEYWGQGTQVTVSS : high polyreactivity
QVQLVESGGGLVQAGGSLRLSCASSGRNFQKYAMGWYRQAPGKERELVAAISSGDSTYADSVKGRFTISRDNAKNTVYFQMNSLKPEDTAVYYCAVDLYDPWWYSYIGEYEYWGQGTQVTVSS : low polyreactivity
QVQLVESGGGLVQAGGSLRLSCAASGSIFADYAMGWYRQAPGKERELVSAITGSGGRTYYADSVKGRFTISRDNAKNTLYLQMNSLKPEDTAVYYCAADGLSNVRQMDYWGQGTQVTVSS : low polyreactivity
QVQLVESGGGIVQAGGSLRLTCAASGRIFAWYAMGWYRQAPWKERELVASITWGGGRTYYADSVKGRFTISRDNAKNTVYLQMNCLKPEVTAVYYCAAYRYKEEAYLGVAQERDYWGQGTLVTVSS : low polyreactivity
QVQLVESGGGLVQAGGSLSLSSAATGNIFRNNAMGWYRQAPGKERELGAAISYSGGRTFYADSVKGRFTISRDNAKNTVYLQMNSLKPEDTAVYYCAVTYGRNADDYEYWGQGTQVTVSS : high polyreactivity
QVQLVESGGGLVQAGGSLRLSCAASGSTLWFNAMGLYRPAPGKERELVAAINWSGGSTYYADSVKGRFTISRDNAKNTVYLQMNSLKPEDTAVYYCAAVYQYVHYVWYDYWGQGTQVTVSS : low polyreactivity
QVQLVESGGGLVQAGGSLRLSCAASGRTFSKNAMGWYRQAPGKERELVADISRRGGRTYYADSVNGRFTISRDNAKNTVYLQMNSLKPEDTAVYYSAARRRGSVGVGYAYPYNYWGQGTQVTVSS : high polyreactivity
QVQLVESGGGLVQAGGSLRLSCAASGFIFYYYAMGWYRPAPGKERELVAAISGESTSTYYADSVKGRFTISRDNAKNTVYLQMNSLKPEDTALYYCAADLYHWDGYEYWGQGTQVTVST : high polyreactivity

Entry under review: QVQLVESGGGLVQAGGSLRLSCAASGRTFRAYAMGWYRQAPGKERELVASISRGGSTKYADSVKGRFTISRDNAKNTVYLQMNSVKPEDTAVYYCAADRLRDGVDYWGQGTQVTVSS . Reported polyreactivity (PSR sort gate)? low polyreactivity

Recorded polyreactivity (PSR sort gate) for QVQLLESGGGLVQAGGSLRLSCAASRTISYAGTRLWYRQAPGKEREFVAGIGVGSNTNYADSVKGRYTIIRDNAINTVYLQMTSLKPEDTAVYYCAVGGYAPLGRPFWGQGTQVSVSS , please? low polyreactivity

Item under review: QVQLVESWGGLVQAGGSLRLSCAASGITFTVYAMGWYRQAPGKEREFVAAISSSGSTTYAVSVKGRLTFSRDNAKNTVYLQMNSLKPEDTAVYYCAAEGYYRFSTAYFRRKYEYCGQGTQVTVSS . Reported polyreactivity (PSR sort gate)? low polyreactivity

# get_value(readout='polyreactivity (PSR sort gate)', item= QVQLVESGGGLVQAGGSLRLSCAASGRIFGYNDMGLYRQAPGKERELVAAINWTGGSTYYADSVKGRFTISRDNAKNTVYLQMNSLKPEDTAVYYCNADARTKWVQTHTDFITDYDYWGQGTQVTVSS ) low polyreactivity

Form field: reported polyreactivity (PSR sort gate) of QVQLVESGGGLVQAGGSLRLSCAASGRTFVRYAMGWYRQAPGKERELVAAISWSGGSTYYADSVKGRFTISRDNAKNTVYLQMNSLKPEDTAVYYCAADDETPSSHEEDYWGQGTQVTVSS high polyreactivity

Returns the measured polyreactivity (PSR sort gate) for the input sequence. Input: QVQLVESVGGVVQAGGSLRLCCAANRSTFAAKAMGWYRQAPGKERELGAAITSGGGTNYADSVKGRFTISRDNAKNTVYLQMNSLKPEDTAVYYCAARTWPWVLGATQDDYWGQGTQVTLSS low polyreactivity

Fill in: polyreactivity (PSR sort gate) of QVQLVESGGGLVQAGGSLRLSCDASGRIFGYYTMGWYRQAPGKERELVAAISNSGVSTYYADSVKGRFTISRDNAKNTVYLQMNSLKPEDTAVYYCNARLYSYYKFNYWGQGTQVTVSS is ___ high polyreactivity

meta.source: the nanobody polyreactivity screen of Harvey et al. (2022)
